- System: IGROV1 ovarian
- test_details: NCI-60 one-dose screen, 48 h (100 = growth as untreated, 0 = no growth, -100 = all killed)
- assay_setup: 10 µM unless noted
- Procedure: Growth inhibition of the IGROV1 human tumor cell line is measured as a screen for anti-cancer activity. Cells are grown in 96 well plates and exposed to the test compound for 48 hours. Compounds are tested at a single concentration, which is 10^-5 M for most compounds. The reported endpoint is percent growth (GI% or GIPRCNT), where numbers from 0 - 100% represent growth inhibition, and numbers from -100% - 0 represent cell death. For example, a value of 40 represents 60% growth inhibition. […]
Compounds without any hit were thinned out: in the full panel of roughly 83,000, 20% have a hit.
# growth annotations
Entry rule: numbers only, all in %.

Past entries and their recorded results:
{"columns": ["record_smiles", "measured_target", "growth / %"],
 "data": [
  ["Brc1ccc(-n2cc(-c3nn[nH]n3)c(-c3cccs3)n2)cc1", "IGROV1 ovarian", 93.2],
  ["O=C(O)[C@@H]1c2ccccc2-c2ccccc2[C@H]1C(=O)O", "IGROV1 ovarian", 80.7],
  ["C/C(Nc1ccc(Cl)c(Cl)c1)=C1\\CCOC1=O", "IGROV1 ovarian", 83.8]
]}

[Q] Report growth for CCN(CC)CCSc1nc(-c2ccccc2)c(C#N)c(=O)[nH]1 please.
[A] 117

[Q] Report growth for CC(C)N1CCN(Cc2ccc3c(NNC(=O)c4ccccc4)nc4cc(F)ccc4n23)CC1 please.
[A] 21.4
